target: Indoleamine 2,3-dioxygenase 1 (Homo sapiens); assay: Inhibition of human IDO using L-tryptophan as substrate at 25 uM by colorimetric method
The source made the active and inactive calls. The calls are words filed in the database; no cut-off is given here.
recordedEndpoint: inhibition

Observe how each entry below is paired with its result.
- COc1ccc2c(c1)-c1nnc(-c3cccc(C(F)(F)F)c3)cc1C2=O: inactive
- Cc1cc2c(nn1)-c1cc(OCc3cccc(Cl)c3)ccc1C2=O: 25%
- Cc1cc2c(nn1)-c1cc(OCCCC(F)(F)F)ccc1C2=O: 19%
- O=C1c2ccc(OCc3ccccc3)cc2-c2nnc(-c3cccc(C(F)(F)F)c3)cc21: 17%
- Cc1cccc(COc2ccc3c(c2)-c2nnc(C)cc2C3=O)c1: 14%

Now for the compound whose inhibition we want.
Record summary for `O=C1c2ccc(OCCCC(F)(F)F)cc2-c2nnc(-c3cccc(C(F)(F)F)c3)cc21` : reported inhibition = inactive
